Quick note: these are IC50 numbers for system: Prolyl endopeptidase FAP (Homo sapiens, UniProt Q12884)
Sequence (Q12884 whole entry): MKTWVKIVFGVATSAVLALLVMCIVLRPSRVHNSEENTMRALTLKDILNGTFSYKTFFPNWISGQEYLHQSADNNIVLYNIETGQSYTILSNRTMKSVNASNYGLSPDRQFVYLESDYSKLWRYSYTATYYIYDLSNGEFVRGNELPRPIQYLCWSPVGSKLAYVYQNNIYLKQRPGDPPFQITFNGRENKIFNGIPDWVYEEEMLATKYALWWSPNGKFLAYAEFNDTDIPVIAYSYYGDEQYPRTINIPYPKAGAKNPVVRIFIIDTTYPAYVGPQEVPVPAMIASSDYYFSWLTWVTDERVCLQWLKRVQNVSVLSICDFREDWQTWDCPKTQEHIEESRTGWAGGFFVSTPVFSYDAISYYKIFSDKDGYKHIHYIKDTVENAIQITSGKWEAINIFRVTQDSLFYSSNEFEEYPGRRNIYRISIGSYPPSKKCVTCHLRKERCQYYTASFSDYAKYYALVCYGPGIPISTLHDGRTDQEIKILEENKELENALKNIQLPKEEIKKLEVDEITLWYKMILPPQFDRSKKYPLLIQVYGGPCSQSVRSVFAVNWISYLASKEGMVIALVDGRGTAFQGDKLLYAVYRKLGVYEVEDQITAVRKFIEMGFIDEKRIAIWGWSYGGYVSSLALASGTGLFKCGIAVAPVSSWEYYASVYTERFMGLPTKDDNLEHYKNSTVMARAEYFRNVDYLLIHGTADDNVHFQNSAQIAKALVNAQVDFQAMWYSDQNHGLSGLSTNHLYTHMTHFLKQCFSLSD
assayMetric: IC50 (µM)

1) CC(C)[C@@H](Oc1ccc(CNC(=O)[C@@H]2CCCN2C(=O)CC(N)Cc2c(F)c(F)c(F)c(F)c2F)cc1)C(=O)O.O=C(O)C(F)(F)F (stereo not given in full) | 48
2) CC(C)[C@@H](Oc1ccc(CNC(=O)[C@@H]2CCCN2C(=O)CC(N)Cc2cc(F)ccc2F)cc1)C(=O)O.O=C(O)C(F)(F)F (stereo not given in full) | 21

---

test: Half-life in rats ([…]/[…] mg/kg i.v./p.o.); type: ADME, organism-based; details: rat, in vivo, 2 mg/kg
Classification field: TRUE = half-life at or over 20 min; FALSE = half-life under 20 min.

1) NC(CC(=O)N1CCC[C@H]1C(=O)NCc1ccc(C(F)(F)F)cc1)Cc1ccccc1F.O=C(O)C(F)(F)F (some centres not stated) | TRUE
2) NC(CC(=O)N1CSC[C@H]1C(=O)NCc1ccc(CC(=O)O)cc1)Cc1ccccc1F.O=C(O)C(F)(F)F (some centres not stated) | FALSE
3) CC(C)[C@@H](Oc1ccc(CNC(=O)[C@@H]2CCCN2C(=O)CC(N)Cc2c(F)c(F)c(F)c(F)c2F)cc1)C(=O)O.O=C(O)C(F)(F)F (some centres not stated) | TRUE
4) NC(CC(=O)N1CCC[C@H]1C(=O)NCc1ccc(C(=O)O)cc1)Cc1ccc(F)c(F)c1.O=C(O)C(F)(F)F (some centres not stated) | TRUE
5) CC(C)[C@@H](Oc1ccc(CNC(=O)[C@@H]2CCCN2C(=O)CC(N)Cc2cc(F)ccc2F)cc1)C(=O)O.O=C(O)C(F)(F)F (some centres not stated) | TRUE
6) COC(=O)Cc1ccc(CNC(=O)[C@@H]2CSCN2C(=O)CC(N)Cc2ccccc2F)cc1.O=C(O)C(F)(F)F (some centres not stated) | FALSE
7) NC(CC(=O)N1CCC[C@H]1C(=O)NCCCCc1nn[nH]n1)Cc1ccccc1F.O=C(O)C(F)(F)F (some centres not stated) | FALSE
